Data origin, for the record: patent US10654847B2

Would you kindly list Emax (%) for each of these molecules?
# assay-target: mAChR M1 (UniProt P11229)
# measurement-notes: mAChR M1 cell-based functional assay (calcium mobilization, potentiation of EC20 acetylcholine response)
# test-conditions: % ACh maximum at 30 μM; mAChR M1-expressing CHO-K1 cells, calcium flux
Numbers only, in %.

Fill in Emax (%) for each of the 8 molecules listed.
1. O=C1c2ncccc2CN1Cc1ccc(-c2ccc3ccncc3c2)cc1F
2. O=C1c2cccnc2CN1Cc1ccc(-c2ccc3cnccc3c2)cc1F
3. Cn1cc2cc(-c3cc(F)c(CN4Cc5ncccc5C4=O)c(F)c3)ccc2n1
4. O=C1c2cccnc2CN1Cc1ccc(-c2cn3ccnc3cn2)cc1F
5. Cn1cc(-c2ccc(CN3Cc4ccncc4C3=O)c(F)c2)cn1
6. O=C1c2cccnc2CN1Cc1ccc(-c2ccc3cn[nH]c3c2)cc1F
7. Cn1cc2cc(-c3ccc(CN4Cc5ncccc5C4=O)cc3)ccc2n1
8. Cc1nn(C)cc1-c1ccc(CN2Cc3ccccc3C2=O)c(F)c1

59
65
73
53
79
70
56
78

Specify measured Emax (%) for COc1cncc(-c2ccc(CN3Cc4ncccc4C3=O)c(F)c2)c1 . 47

====

Would you mind telling me the reported Emax (%) of each entry?
# assay-target: mAChR M1 (UniProt P11229)
# Sequence (P11229 1-460): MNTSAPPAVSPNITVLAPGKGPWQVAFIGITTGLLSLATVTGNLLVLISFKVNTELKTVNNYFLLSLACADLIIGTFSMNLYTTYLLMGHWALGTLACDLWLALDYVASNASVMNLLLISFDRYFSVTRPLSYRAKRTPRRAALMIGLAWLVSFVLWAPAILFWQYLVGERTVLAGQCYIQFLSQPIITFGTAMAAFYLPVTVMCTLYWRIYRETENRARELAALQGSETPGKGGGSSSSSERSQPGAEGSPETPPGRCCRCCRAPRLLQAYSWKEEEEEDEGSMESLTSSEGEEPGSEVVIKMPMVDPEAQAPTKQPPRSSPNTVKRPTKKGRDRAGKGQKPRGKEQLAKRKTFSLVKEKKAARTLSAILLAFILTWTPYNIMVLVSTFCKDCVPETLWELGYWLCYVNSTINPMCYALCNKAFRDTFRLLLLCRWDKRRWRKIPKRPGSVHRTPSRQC
# measurement-notes: mAChR M1 cell-based functional assay (calcium mobilization, potentiation of EC20 acetylcholine response)
# test-conditions: % ACh maximum at 30 μM; mAChR M1-expressing CHO-K1 cells, calcium flux
# Protocol: Chinese hamster ovary (CHO-K1) cells stably expressing rat (r)M1 were purchased from the American Type Culture Collection and cultured according to their indicated protocol. […] Calcium flux was measured using the Functional Drug Screening System (FDSS) 6000 (Hamamatsu Corporation, Tokyo, Japan) as an increase in the fluorescent static ratio. […] Agonist activity was analyzed as a concentration-dependent increase in calcium mobilization upon compound addition. […]
One number for each entry, in %.

>>> df
                      smiles_representation               assay_target  measured
0  O=C1Cc2cc(-c3cc(F)c(CN4Cc5ncccc5C4=O)c(F)c3)ccc2N1  mAChR M1 (UniProt P11229)        67
1  Cc1cc(-c2ccc(CN3Cc4cccnc4C3=O)c(Cl)c2)cnc1Cl  mAChR M1 (UniProt P11229)        42
2  O=C1c2cccnc2CN1Cc1c(F)cc(-c2ccc3cnccc3c2)cc1F  mAChR M1 (UniProt P11229)        62
3  Cn1ncc2ccc(-c3ccc(CN4Cc5cccnc5C4=O)c(F)c3)cc21  mAChR M1 (UniProt P11229)        76
4  Cn1cc2c(-c3ccc(F)c(CN4Cc5ncccc5C4=O)c3)cccc2n1  mAChR M1 (UniProt P11229)        61

Could you tell me Emax (%) for each of these compounds? They are listed below.
1. Cc1n[nH]c2cc(-c3cc(F)c(CN4Cc5ncccc5C4=O)c(F)c3)ccc12
2. Cn1cc2cc(Nc3ccc(CN4Cc5ncccc5C4=O)c(F)c3)ccc2n1
3. O=C1c2cccnc2CN1Cc1ccc(-c2cnc3ccccc3c2)cc1F
4. Cn1cc2cc(-c3ccc(F)c(CN4Cc5ncccc5C4=O)c3)ccc2n1

49
66
31
42

Provide each entry's Emax (%) from the list below.
1. CN(C)c1ccc(-c2ccc(CN3Cc4ncccc4C3=O)c(F)c2)cn1
2. Cn1cc2c(n1)CCN(c1ccc(CN3Cc4ncccc4C3=O)c(F)c1)C2
3. Cc1cc(-c2ccncc2)ccc1CN1Cc2cccnc2C1=O

1. 31
2. 32
3. 41

# batch size: 4; output Emax (%) per entry
1. O=C1c2ncccc2CN1Cc1ccc(-c2cncc(Cl)c2)cc1F
2. CN(C)c1ccc(-c2ccc(CN3Cc4cccnc4C3=O)c(Cl)c2)cn1
3. O=C1c2cccnc2CN1Cc1ccc(-c2ccnc(F)c2)cc1F
4. O=C1c2cccnc2CN1Cc1c(F)cc(-c2ccc3c(c2)OCCO3)cc1F

1. 38
2. 58
3. 36
4. 36

====

# assay-target: UniProtKB P11229
# Sequence (P11229 1-460): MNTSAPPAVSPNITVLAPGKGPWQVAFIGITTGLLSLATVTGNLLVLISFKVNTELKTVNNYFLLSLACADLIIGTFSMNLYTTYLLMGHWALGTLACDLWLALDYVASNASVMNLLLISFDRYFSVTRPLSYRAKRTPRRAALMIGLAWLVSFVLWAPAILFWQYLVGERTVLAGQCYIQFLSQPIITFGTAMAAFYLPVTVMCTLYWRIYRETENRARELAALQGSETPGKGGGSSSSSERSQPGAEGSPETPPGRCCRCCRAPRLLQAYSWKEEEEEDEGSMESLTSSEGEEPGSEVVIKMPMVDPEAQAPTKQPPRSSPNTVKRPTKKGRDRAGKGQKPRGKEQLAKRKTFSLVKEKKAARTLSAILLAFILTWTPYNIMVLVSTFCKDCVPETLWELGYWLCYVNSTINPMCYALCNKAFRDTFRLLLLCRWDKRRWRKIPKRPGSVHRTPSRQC
# measurement-notes: mAChR M1 cell-based functional assay (calcium mobilization, potentiation of EC20 acetylcholine response)
# test-conditions: % ACh maximum at 30 μM; mAChR M1-expressing CHO-K1 cells, calcium flux
Provide the reported Emax (%) of each item.
Answers are plain numbers, in %.

Below, 4 compounds whose answers are already recorded.
In [3]: df
Out[3]:
                      smiles_representation  quantity_unit  measured
0  O=C1c2ncccc2CN1Cc1ccc(-c2ccc3cnccc3c2)cc1F              %        62
1      O=C1c2ncccc2CN1Cc1ccc(-c2cccnc2)cc1F              %        50
2  O=C1c2ncccc2CN1Cc1ccc(-c2cnc3ccccc3c2)cc1F              %        52
3     O=C1c2ncccc2CN1Cc1ccc(-c2ccncc2)cc1Cl              %        56

Supply Emax (%) value. Item: CN1CC=C(c2ccc(CN3Cc4ncccc4C3=O)c(F)c2)CC1 80

====

# assay-target: mAChR M1 (UniProt P11229)
# measurement-notes: mAChR M1 cell-based functional assay (calcium mobilization, potentiation of EC20 acetylcholine response)
# test-conditions: positive allosteric modulation of EC20 ACh response, mAChR M1 CHO-K1 cells; >10 μM estimated where no plateau; read-out: EC50
# Method: Chinese hamster ovary (CHO-K1) cells stably expressing rat (r)M1 were purchased from the American Type Culture Collection and cultured according to their indicated protocol. […] Calcium flux was measured using the Functional Drug Screening System (FDSS) 6000 (Hamamatsu Corporation, Tokyo, Japan) as an increase in the fluorescent static ratio. […] Agonist activity was analyzed as a concentration-dependent increase in calcium mobilization upon compound addition. […]
pEC50: −log10 of the molar value.
attribute-measured: pEC50

Provide pEC50 for all items below, preserving their order.
1. O=S1(=O)c2ccccc2CN1Cc1ccc(-n2cccc2)cc1 [Example B125]
2. Cc1noc(-c2ccc(CN3Cc4ccccc4S3(=O)=O)cc2)n1 [Example B118]
3. Cn1cc(-c2cnc(CN3Cc4cccnc4C3=O)c(F)c2)cn1 [Example B20]
4. O=S1(=O)c2ccccc2CN1Cc1ccc(-c2cnns2)cc1 [Example B117]
5. O=C1Cc2cc(-c3ccc(CN4Cc5ncccc5C4=O)c(F)c3)ccc2N1 [Example B86]
6. Cn1cc2cc(-c3cccc(CN4Cc5ncccc5C4=O)c3F)ccc2n1 [Example B106]

< 5.00
< 5.00
< 5.00
< 5.00
6.25
5.42

I'm hoping you can list pEC50 for every molecule here, please.
1. O=S1(=O)c2ccccc2CN1Cc1ccc(-c2coc(-c3ccccc3)n2)cc1 [Example B120]
2. Cn1cc2cc(-c3ccc(CN4Cc5cccnc5C4=O)c(F)c3)ccc2n1 [Example B71]
3. O=C1c2ccccc2CN1Cc1ccc(-c2c[nH]nc2C(F)(F)F)cc1F [Example B16]

1. < 5.00
2. 6.15
3. < 5.00
